Target: UniProtKB P21731
Sequence (P21731 whole entry): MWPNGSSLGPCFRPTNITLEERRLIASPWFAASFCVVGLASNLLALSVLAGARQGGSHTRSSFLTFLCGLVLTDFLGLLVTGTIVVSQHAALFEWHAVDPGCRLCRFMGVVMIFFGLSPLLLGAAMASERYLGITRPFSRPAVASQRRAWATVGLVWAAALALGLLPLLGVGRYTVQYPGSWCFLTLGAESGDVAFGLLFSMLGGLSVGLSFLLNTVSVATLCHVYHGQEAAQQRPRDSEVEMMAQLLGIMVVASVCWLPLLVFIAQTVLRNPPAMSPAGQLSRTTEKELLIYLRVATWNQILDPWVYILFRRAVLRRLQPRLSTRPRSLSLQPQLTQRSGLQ
Type: functional, cell-based
I'd be grateful if you could share measured AC50 for these entries.

# input Would you kindly share the measured AC50 for O=C(Nc1cccc2c(=O)cc(-c3nnn[nH]3)oc12)c1ccc(OCCCCc2ccccc2)cc1 ?
# output > 30 µM

# input Would you kindly share the measured AC50 for CNC(=O)Oc1ccc2c(c1)[C@]1(C)CCN(C)[C@@H]1N2C ?
# output > 30 µM

# input Would you kindly share the measured AC50 for O=C(Nc1nc(-c2cc(Cl)cs2)c(N2CCN(C3CCCCC3)CC2)s1)c1cnc(N2CCC(C(=O)O)CC2)c(Cl)c1 ?
# output > 30 µM

# input Would you kindly share the measured AC50 for CO[C@H]1[C@@H](O)C[C@H](O[C@H]2[C@@H](O)C[C@H](O[C@H]3[C@@H](O)C[C@H](O[C@H]4CC[C@@]5(C)[C@H](CC[C@@H]6[C@@H]5C[C@@H](O)[C@]5(C)[C@@H](C7=CC(=O)OC7)CC[C@]65O)C4)O[C@@H]3C)O[C@@H]2C)O[C@@H]1C ?
# output > 30 µM

# input Would you kindly share the measured AC50 for O=C(O)CC(O)(CC(=O)O)C(=O)O ?
# output > 30 µM

# input Would you kindly share the measured AC50 for C=C1c2c(Cl)ccc(O)c2C(=O)C2=C(O)[C@]3(O)C(=O)C(C(N)=O)=C(O)[C@@H](N(C)C)[C@@H]3[C@@H](O)[C@H]12 ?
# output > 30 µM

# input Would you kindly share the measured AC50 for CCCC(=O)O[C@H]1[C@H](C)O[C@@H](O[C@H]2[C@H](N(C)C)[C@@H](O)[C@H](O[C@H]3[C@@H](CC=O)C[C@@H](C)[C@@H](O)/C=C/C=C/C[C@@H](C)OC(=O)C[C@@H](O)[C@@H]3OC)O[C@@H]2C)C[C@@]1(C)OC(=O)CC ?
# output > 30 µM

# input Would you kindly share the measured AC50 for CC[C@H]1OC(=O)[C@H](C)[C@@H](O[C@H]2C[C@@](C)(OC)[C@@H](O)[C@H](C)O2)[C@H](C)[C@@H](O[C@@H]2O[C@H](C)C[C@H](N(C)C)[C@H]2O)[C@](C)(OC)C[C@@H](C)C(=O)[C@H](C)[C@@H](O)[C@]1(C)O ?
# output > 30 µM

# input Would you kindly share the measured AC50 for CCOc1ccc2ccccc2c1C(=O)N[C@@H]1C(=O)N2[C@@H]1SC(C)(C)[C@@H]2C(=O)O ?
# output > 30 µM

# input Would you kindly share the measured AC50 for CCCCOc1ccc(CC(=O)NO)cc1 ?
# output > 30 µM

# input Would you kindly share the measured AC50 for O=C(O)c1cc(=O)c2ccccc2o1 ?
# output > 30 µM

# input Would you kindly share the measured AC50 for C[C@H](N)C(=O)O ?
# output > 30 µM

# input Would you kindly share the measured AC50 for Cc1ccc([C@@H]2O[C@H](CO)[C@@H](O)[C@H](O)[C@H]2O)cc1Cc1ccc(-c2ccc(F)cc2)s1 [CANAGLIFLOZIN ANHYDROUS] ?
# output > 30 µM

---

I'd be grateful if you could share measured AC50 for these entries.
Target: UniProtKB P28223
Sequence (P28223 whole entry): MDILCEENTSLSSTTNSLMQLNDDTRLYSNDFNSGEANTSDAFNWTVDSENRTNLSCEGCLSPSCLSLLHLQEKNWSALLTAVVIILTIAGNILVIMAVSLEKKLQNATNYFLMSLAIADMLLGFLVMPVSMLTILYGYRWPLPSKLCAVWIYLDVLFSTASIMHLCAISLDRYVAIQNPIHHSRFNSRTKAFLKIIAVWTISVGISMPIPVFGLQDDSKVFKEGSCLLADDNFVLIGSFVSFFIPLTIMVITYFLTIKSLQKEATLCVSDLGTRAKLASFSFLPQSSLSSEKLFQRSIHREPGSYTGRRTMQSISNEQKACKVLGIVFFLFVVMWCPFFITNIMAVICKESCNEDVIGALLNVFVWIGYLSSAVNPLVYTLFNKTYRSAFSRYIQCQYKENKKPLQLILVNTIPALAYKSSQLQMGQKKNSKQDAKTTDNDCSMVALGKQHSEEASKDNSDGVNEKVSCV
Type: functional, cell-based

# input Would you kindly share the measured AC50 for CO/N=C(\C(=O)N[C@@H]1C(=O)N2C(C(=O)[O-])=C(C[n+]3cccc4c3CCC4)CS[C@H]12)c1csc(N)n1 [CEFPIROME] ?
# output > 30 µM

# input Would you kindly share the measured AC50 for CC(=O)O[C@H]1C[C@@H]2CC[C@@H]3[C@H](CC[C@@]4(C)[C@H]3C[C@H]([N+]3(C)CCCCC3)[C@@H]4OC(C)=O)[C@@]2(C)C[C@@H]1[N+]1(C)CCCCC1 [PANCURONIUM] ?
# output > 10 µM

# input Would you kindly share the measured AC50 for CCN(CC)C(=O)C1CN2CCc3cc(OC)c(OC)cc3C2CC1OC(C)=O (stereo unspecified) [BENZQUINAMIDE] ?
# output 1.57 µM

# input Would you kindly share the measured AC50 for CCC(=O)OCC(=O)[C@@]1(OC(=O)CC)[C@@H](C)C[C@H]2[C@@H]3CCC4=CC(=O)C=C[C@]4(C)[C@@]3(F)[C@@H](O)C[C@@]21C [BETAMETHASONE DIPROPIONATE] ?
# output > 30 µM

# input Would you kindly share the measured AC50 for CCOc1cc(CC(=O)N[C@@H](CC(C)C)c2ccccc2N2CCCCC2)ccc1C(=O)O [REPAGLINIDE] ?
# output 9.4 µM

# input Would you kindly share the measured AC50 for CCCN(CCC)CCc1cccc2c1CC(=O)N2 [ROPINIROLE] ?
# output 7.3 µM

# input Would you kindly share the measured AC50 for O=C1Nc2ccc(Cl)cc2C(c2ccccc2)=NC1O (stereo unspecified) [OXAZEPAM] ?
# output > 30 µM

# input Would you kindly share the measured AC50 for C[C@@H]1C[C@H]2[C@@H]3C[C@H](F)C4=CC(=O)C=C[C@]4(C)[C@@]3(F)[C@@H](O)C[C@]2(C)[C@H]1C(=O)CO [DIFLUCORTOLONE] ?
# output > 30 µM

# input Would you kindly share the measured AC50 for O=C(O)c1cc(O)c2c3nc4ccccc4oc-3cc(=O)c2n1 [PIRENOXINE] ?
# output > 30 µM

# input Would you kindly share the measured AC50 for CCCCCCOC(=O)CCC(=O)CN [HEXAMINOLEVULINATE] ?
# output > 30 µM

# input Would you kindly share the measured AC50 for OCCN1CCN(CC/C=C2/c3ccccc3Sc3ccc(Cl)cc32)CC1 [ZUCLOPENTHIXOL] ?
# output 0.51 µM

# input Would you kindly share the measured AC50 for CCCC(C)(COC(N)=O)COC(=O)NC(C)C (stereo unspecified) [CARISOPRODOL] ?
# output > 30 µM

# input Would you kindly share the measured AC50 for CC(=O)/N=c1/sc(S(N)(=O)=O)nn1C [METHAZOLAMIDE] ?
# output > 10 µM

# input Would you kindly share the measured AC50 for CN1c2ccccc2C(NCCCCCCC(=O)O)c2ccc(Cl)cc2S1(=O)=O (stereo unspecified) [TIANEPTINE] ?
# output > 30 µM

# input Would you kindly share the measured AC50 for COC(=O)N[C@@H](C)CNc1nccc(-c2cn(C(C)C)nc2-c2cc(Cl)cc(NS(C)(=O)=O)c2F)n1 [ENCORAFENIB] ?
# output > 30 µM

# input Would you kindly share the measured AC50 for CC(CCc1ccccc1)NC(C)C(O)c1ccc(O)cc1 (stereo unspecified) [NYLIDRIN] ?
# output > 30 µM

---

I'd be grateful if you could share measured AC50 for these entries.
Biological target: UniProtKB P0DMS8
Sequence (P0DMS8 whole entry): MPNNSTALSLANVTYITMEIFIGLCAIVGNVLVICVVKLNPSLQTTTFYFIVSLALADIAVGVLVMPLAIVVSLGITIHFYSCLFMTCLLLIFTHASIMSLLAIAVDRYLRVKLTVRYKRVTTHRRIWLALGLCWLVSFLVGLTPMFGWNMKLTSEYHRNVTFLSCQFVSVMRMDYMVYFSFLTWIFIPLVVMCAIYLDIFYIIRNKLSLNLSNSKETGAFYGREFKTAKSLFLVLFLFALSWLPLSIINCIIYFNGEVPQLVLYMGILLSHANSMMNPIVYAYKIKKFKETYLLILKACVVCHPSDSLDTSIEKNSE

# input Would you kindly share the measured AC50 for C#C[C@]1(O)CC[C@H]2[C@@H]3CCc4cc(OC)ccc4[C@H]3CC[C@@]21C ?
# output > 30 µM

# input Would you kindly share the measured AC50 for CC(NCCc1ccc(O)cc1)C(O)c1ccc(O)cc1 (stereo unspecified) ?
# output > 30 µM

# input Would you kindly share the measured AC50 for O=c1oc2ccccc2c(O)c1Cc1c(O)c2ccccc2oc1=O ?
# output > 10 µM

# input Would you kindly share the measured AC50 for Cc1cccc(N(C)C(=S)Oc2ccc3ccccc3c2)c1 [TOLNAFTATE] ?
# output > 10 µM

# input Would you kindly share the measured AC50 for Nc1nc(F)nc2c1ncn2[C@@H]1O[C@H](COP(=O)(O)O)[C@@H](O)[C@@H]1O [FLUDARABINE PHOSPHATE] ?
# output > 30 µM

# input Would you kindly share the measured AC50 for NS(=O)(=O)c1cc(C2(O)NC(=O)c3ccccc32)ccc1Cl (stereo unspecified) ?
# output > 10 µM

# input Would you kindly share the measured AC50 for CC(=O)O[C@H]1C[C@@H]2CC[C@@H]3[C@H](CC[C@@]4(C)[C@H]3C[C@H]([N+]3(C)CCCCC3)[C@@H]4OC(C)=O)[C@@]2(C)C[C@@H]1[N+]1(C)CCCCC1 ?
# output > 10 µM

# input Would you kindly share the measured AC50 for Clc1ccc(C(Cn2ccnc2)OCc2ccc(Sc3ccccc3)cc2)c(Cl)c1 (stereo unspecified) ?
# output 6.4 µM

# input Would you kindly share the measured AC50 for COC(=O)N[C@@H](C)CNc1nccc(-c2cn(C(C)C)nc2-c2cc(Cl)cc(NS(C)(=O)=O)c2F)n1 ?
# output > 30 µM

# input Would you kindly share the measured AC50 for CCOC(=O)Nc1ccc2c(c1)N(C(=O)CCN1CCOCC1)c1ccccc1S2 ?
# output > 30 µM

# input Would you kindly share the measured AC50 for CCCCC1(CC)C(=O)NC(=O)NC1=O ?
# output > 30 µM

# input Would you kindly share the measured AC50 for COc1cccc2c1C(=O)c1c(O)c3c(c(O)c1C2=O)C[C@@](O)(C(C)=O)C[C@@H]3O[C@H]1C[C@H](N)[C@H](O)[C@H](C)O1 ?
# output 26.5 µM

# input Would you kindly share the measured AC50 for CC1(C)C(C=C(Cl)Cl)C1C(=O)OCc1cccc(Oc2ccccc2)c1 (stereo unspecified) ?
# output > 10 µM

# input Would you kindly share the measured AC50 for O=C(O)c1ccccc1OP(=O)(O)O ?
# output > 30 µM

# input Would you kindly share the measured AC50 for COc1c(O[C@@H]2O[C@H](CO)[C@@H](O)[C@H](O)[C@H]2O)cc2c(c1OC)-c1ccc(SC)c(=O)cc1[C@@H](NC(C)=O)CC2 [THIOCOLCHICOSIDE] ?
# output > 30 µM

# input Would you kindly share the measured AC50 for CCCC(C)(COC(N)=O)COC(=O)NC(C)C (stereo unspecified) ?
# output > 30 µM
